Sourced from paper PMC7618200

- assay.target: T1, SPOP MATH domain (SPOP^MATH; residues 28-166) (human, UniProt O43791 28-166)
- T1 chain: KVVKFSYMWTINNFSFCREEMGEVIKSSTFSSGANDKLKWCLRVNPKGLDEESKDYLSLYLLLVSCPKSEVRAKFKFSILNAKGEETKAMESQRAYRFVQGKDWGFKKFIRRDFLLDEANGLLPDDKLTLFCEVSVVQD
- assay.comment: FP
pIC50: −log10 of the molar value.
readout.label: pIC50

{"binder": "SRENLACDEVTSTTS [Puc peptide (unlabeled competitor; natural Puc peptide)]", "readout.label": "pIC50", "experimental.result": 4.01}
